Target: T1, human CD73-His (human, UniProt P21589 27-549)
T1 construct: extracellular domain; The SPR analyte is only called 'human CD73-His' (non-covalent dimeric antigen); also called HuCD73 His tagged; HuCD73his20170303
T1 sequence: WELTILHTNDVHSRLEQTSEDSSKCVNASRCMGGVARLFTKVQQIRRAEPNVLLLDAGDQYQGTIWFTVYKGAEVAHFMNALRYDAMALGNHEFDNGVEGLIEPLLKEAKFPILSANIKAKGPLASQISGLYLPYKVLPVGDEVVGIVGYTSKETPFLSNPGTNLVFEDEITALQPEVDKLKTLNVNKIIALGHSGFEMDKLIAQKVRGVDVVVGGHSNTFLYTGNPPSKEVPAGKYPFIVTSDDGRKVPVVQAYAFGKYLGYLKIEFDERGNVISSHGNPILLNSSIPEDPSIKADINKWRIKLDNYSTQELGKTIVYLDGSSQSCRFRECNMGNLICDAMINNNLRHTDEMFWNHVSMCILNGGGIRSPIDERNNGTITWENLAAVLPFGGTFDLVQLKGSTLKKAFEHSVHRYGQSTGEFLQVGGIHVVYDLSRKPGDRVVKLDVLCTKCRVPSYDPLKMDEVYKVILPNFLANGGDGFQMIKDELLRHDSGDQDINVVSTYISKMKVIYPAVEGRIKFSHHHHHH
Assay: SPR (ProteOn XPR36), antibody captured on Protein A/G, dimeric human CD73-His as analyte, avidity format, 1:1 Langmuir fit
pKd: −log10 of the molar value.
recorded metric: pKd

- binder: "C1 (antibody, human IgG1, kappa, L234A L235A, V domains shown, Humanized monoclonal antibody; also called anti-CD73 antibody C1) VH: QVQLVQSGAEVKKPGDSVKVSCKASGYTFTTYWMHWVRQAPGQGLEWMGAIYPGFSDTTYSQKFKGKVTMTRDTSTSTVYMKLSSLRSEDTAVYYCARLLDYAMDYWGQGTLVTVSS VL: DIQMTQSPSSLSASVGDRVTITCRASQDIRSYLNWHQQKPGKAPKLLIWYTSRLHSGVPSRFSGSGSGTDYTLTISSLEPEDFATYFCQQGETLPWTFGQGTKLEIKR"
  recorded metric: "pKd"
  numeric result: 10.14
- binder: "B2 (antibody, human IgG1, kappa, L234A L235A, V domains shown, Humanized monoclonal antibody; also called anti-CD73 antibody B2) VH: EVQLVESGGGLVQPGGSLRLSCAASGLTFSSYVMSWVRQAPGKGLEWVSTISSGGVSTYYPDTVKGRFTISRDNSKNTLYLQMNSLRAEDTAVYYCAKRETARATGFAYWGQGTLVTVSA VL: DIQMTQSPSSLSASVGDRVTITCKASQSVSDDVTWYQQKPGKAPKLLIYYASNRYTGVPSRFSGSGSGTDFTFTISSVQPEDIATYYCQQDYSSPWTFGGGTKLEIKR"
  recorded metric: "pKd"
  numeric result: 9.38
- binder: "C4 (antibody, human IgG1, kappa, L234A L235A, V domains shown, Humanized monoclonal antibody; also called C04; inventive anti-CD73 antibody C4) VH: QVQLVQSGAEVKKPGDSVKVSCKASGYTFTTYWMHWVRQAPGQGLEWMGAIYPGLSDTTYNQKFKGKVTMTRDTSTSTVYMKLSSLRSEDTAVYYCARLLDYAMDYWGQGTLVTVSS VL: DIQMTQSPSSLSASVGDRVTITCRASQDIRSYLNWHQQKPGKAPKLLIWYTSRLHSGVPSRFSGSGSGTDYTLTISSLQPEDFATYFCQQGETLPWTFGQGTKLEIKR"
  recorded metric: "pKd"
  numeric result: 10.13
- binder: "C3 (antibody, human IgG1, kappa, L234A L235A, V domains shown, Humanized monoclonal antibody; also called anti-CD73 antibody C3) VH: QVQLVQSGAEVKKPGDSVKVSCKASGYTFTTYWMHWVRQAPGQGLEWMGAIYPGLSDTTYSQKFKGKVTMTRDTSTSTVYMKLSSLRSEDTAVYYCARLLDYAMDYWGQGTLVTVSS VL: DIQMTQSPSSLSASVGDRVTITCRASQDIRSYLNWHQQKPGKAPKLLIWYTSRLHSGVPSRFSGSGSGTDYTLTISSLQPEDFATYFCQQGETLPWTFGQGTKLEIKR"
  recorded metric: "pKd"
  numeric result: 10.14
- binder: "C5 (antibody, human IgG1, kappa, L234A L235A, V domains shown, Humanized monoclonal antibody; also called anti-CD73 antibody C5) VH: QVQLVQSGAEVKKPGDSVKVSCKASGYTFTTYWMHWVRQAPGQGLEWMGAIYPGNSDTTYNQKFKGKVTMTRDTSTSTVYMKLSSLRSEDTAVYYCARLLDYAMDYWGQGTLVTVSS VL: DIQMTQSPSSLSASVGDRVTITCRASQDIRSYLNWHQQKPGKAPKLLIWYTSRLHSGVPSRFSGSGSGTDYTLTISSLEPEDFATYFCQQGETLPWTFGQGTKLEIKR"
  recorded metric: "pKd"
  numeric result: 10.31
- binder: "C2 (antibody, human IgG1, kappa, L234A L235A, V domains shown, Humanized monoclonal antibody; also called anti-CD73 antibody C2) VH: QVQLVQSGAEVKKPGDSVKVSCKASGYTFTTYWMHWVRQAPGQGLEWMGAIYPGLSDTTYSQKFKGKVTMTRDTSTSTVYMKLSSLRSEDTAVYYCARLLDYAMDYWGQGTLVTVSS VL: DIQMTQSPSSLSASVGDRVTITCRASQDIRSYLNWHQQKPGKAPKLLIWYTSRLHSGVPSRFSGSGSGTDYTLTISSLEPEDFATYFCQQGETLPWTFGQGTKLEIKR"
  recorded metric: "pKd"
  numeric result: 10.20
- binder: "C6 (antibody, human IgG1, kappa, L234A L235A, V domains shown, Humanized monoclonal antibody; also called anti-CD73 antibody C6) VH: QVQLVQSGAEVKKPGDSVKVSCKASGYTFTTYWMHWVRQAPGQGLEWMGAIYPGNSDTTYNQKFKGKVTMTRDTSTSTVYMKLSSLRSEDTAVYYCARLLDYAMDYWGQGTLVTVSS VL: DIQMTQSPSSLSASVGDRVTITCRASQDIRNYLNWHQQKPGKAPKLLIWYTSRLHSGVPSRFSGSGSGTDYTLTISSLQPEDFATYFCQQGNTLPWTFGQGTKLEIKR"
  recorded metric: "pKd"
  numeric result: 10.02
